Target: T1, human IL-12Rβ2 (human, UniProt Q99665 24-862)
T1 construct: Expressed on HEK293T cells transiently transfected with a pcDNA3 plasmid (Genscript clone OHu21785); also called hIL-12RB2; IL-12 receptor β2 subunit
T1 sequence: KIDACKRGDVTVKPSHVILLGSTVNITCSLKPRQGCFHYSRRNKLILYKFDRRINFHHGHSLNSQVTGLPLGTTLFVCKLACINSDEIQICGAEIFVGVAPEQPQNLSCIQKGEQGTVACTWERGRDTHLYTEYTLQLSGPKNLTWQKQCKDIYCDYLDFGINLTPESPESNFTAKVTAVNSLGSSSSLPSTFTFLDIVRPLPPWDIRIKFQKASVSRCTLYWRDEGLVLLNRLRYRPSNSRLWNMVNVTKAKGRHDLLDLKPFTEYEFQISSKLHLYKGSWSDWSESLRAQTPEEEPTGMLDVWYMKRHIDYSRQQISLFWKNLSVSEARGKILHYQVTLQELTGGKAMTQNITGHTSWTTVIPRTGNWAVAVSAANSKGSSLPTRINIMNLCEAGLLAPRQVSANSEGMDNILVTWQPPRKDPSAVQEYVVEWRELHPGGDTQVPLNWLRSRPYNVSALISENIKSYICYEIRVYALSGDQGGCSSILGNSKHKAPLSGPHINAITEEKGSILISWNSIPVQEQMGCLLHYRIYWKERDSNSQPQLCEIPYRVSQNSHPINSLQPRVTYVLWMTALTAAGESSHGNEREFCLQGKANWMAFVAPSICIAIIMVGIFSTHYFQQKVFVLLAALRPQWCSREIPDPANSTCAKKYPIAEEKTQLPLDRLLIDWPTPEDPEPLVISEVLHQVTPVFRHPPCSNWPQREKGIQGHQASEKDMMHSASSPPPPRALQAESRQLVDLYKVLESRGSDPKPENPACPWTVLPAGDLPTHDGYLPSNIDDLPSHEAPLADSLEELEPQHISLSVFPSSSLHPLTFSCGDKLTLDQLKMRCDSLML
Experiment: flow cytometry, P.E. on transfected HEK293T cells
Property: % cells bound (%)
All answers are understood in %, so give the number only.

Check out these entries, answers already filled in.
Binder: anti-IL-12Rβ2 VHH clone 3CAHS172 (VHH, not shown: small tags and cut ends, periplasmic extract) VHH: QVQLQESGGGSVQAGGSLRLSCGASGFTFSSFGMHWFRQAPGKGQEWVATISSSGGTTYYSDSVKGRFTISRDNAKNTLYLQMNSLKPEDTALYYCARDVTGAVRGQGTQVTVSS
Unit Info: %
% cells bound: 43
--
Binder: anti-IL-12Rβ2 VHH clone 3CAH32 (VHH, not shown: small tags and cut ends, periplasmic extract; also called 20357) VHH: QVQLQESGGGLVQPGGSLRLSCAASGSILRINLMGWYRQVPGKQRELVAEMSTGGSTTYVDSVKGRFTISRDNAKNTVYLQMNSLKPEDTAVYYCNAKAWQLGRLENDDWGQGTQVTVSS
Unit Info: %
% cells bound: 40
--
Binder: anti-IL-12Rβ2 VHH clone 3CRH27 (VHH, not shown: small tags and cut ends, periplasmic extract) VHH: QVQLQESGGGLVQAGGSLRLSCTASGSIVSIYNMDWYRQAPGNEREWVASITSSGDPYYDGSAKGRFTISRDNAKMTVYLQMNSLKPEDTAVYYCKVPTEKGNYWGQGTQVTVSS
Unit Info: %
% cells bound: 38.9

# ---- query binder ----
Summary for this binder, anti-IL-12Rβ2 VHH clone 3CRHS1 (VHH, not shown: small tags and cut ends, periplasmic extract) VHH: QVQLQESGGGSVQPGGSLRLSCAASGFTFSTSGMHWFRQAPGKGLEWVSSIGIIVDSSYYASSVKGRFTISRDNAKNTLYLQMNSLKSEDTAVYYCSKDPTGSSRGQGTQVTVSS : % cells bound is 44.5
